- System: DMS79 cells
- Assay name: In vitro growth inhibition and isobologram analysis (CellTiter Glo): DMS79
- Format: cell-based, human
- Conditions used: Homo sapiens, DMS-79, 120 h, 5 days, read-out: IC50 (growth), DMS79, alone
Quantity name: IC50 (nM)

INSERT INTO results (compound, quantity_name, observed_result) VALUES
  ('O=C(c1cc(Cc2n[nH]c(=O)c3ccccc23)ccc1F)N1CCN(C(=O)C2CC2)CC1 [olaparib]', 'IC50', 4070),
  ('COc1cc([C@@H]2c3cc4c(cc3[C@@H](O[C@@H]3O[C@@H]5CO[C@@H](C)O[C@H]5[C@H](O)[C@H]3O)[C@H]3COC(=O)[C@H]23)OCO4)cc(OC)c1O [etoposide]', 'IC50', 290);
